Numbers sourced from a melting point compilation (Tetko et al.).

reported-endpoint: melting point

// known answers, use as guide
NCC(O)c1ccccc1C(F)(F)F (stereo unspecified)    106 to 108 °C
CCCOc1ccc(-c2nc(C(=O)O)cs2)cc1    183 to 185 °C
CNC(=CC(=O)c1ccccc1C)NC    206 to 208 °C
CN(C)S(=O)(=O)c1ccc(C(=O)O)o1    177 to 179 °C
O=[N+]([O-])C=Cc1ccc(F)cc1F    55 to 57 °C
Cc1cc(F)c(S(=O)(=O)Cl)cc1[N+](=O)[O-]    64 to 66 °C
CC(C(=O)O)=C1CCCC1    107 to 109 °C
CCSc1ccc([N+](=O)[O-])cc1C(=O)O    189 to 191 °C

// query I would be grateful if you could share the reported melting point for `CCOC(=O)c1ccn(-c2ccc(N)cc2)n1` .
// result 97 to 99 °C

// query Any idea what its melting point is? The compound is `Cc1ccc(O)c(C=O)n1`
// result 64 to 66 °C

// query Quick one: melting point for `O=C1NC(=O)c2cc(F)ccc21` ?
// result 183 to 185 °C

// query Any idea what melting point was measured for `NC(=O)C1(N)CCOCC1` ?
// result 78 to 80 °C

// query Field request: melting point | item: `NCC(=O)N1CCN(c2ccc(Cl)cc2)CC1`
// result 87 to 89 °C

// query Which melting point is listed for `Nc1nc2c(OCC(F)(F)F)cccc2s1` ?
// result 170 to 172 °C
